# METHOD: inhibitors of TNFa-induced NFkB p65 translocation, primary screen, imaging, HUVEC, MLSMR starter and 10KST1 sets (AID 438);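 note: compound added about 3h40 before a 20 min TNFalpha stimulation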
# ASSAY CONTEXT: HUVEC TNFa-induced p65 nuclear translocation; measured here: nuclei count (cytotoxicity indicator), at 2.08 µM
MEASURED ENDPOINT: cell count
No unit in the answer, please; the number alone is enough.

q: Any idea what cell count was measured for `COc1ccc(S(=O)(=O)Cc2ccc(C(=O)NCCc3ccc(S(N)(=O)=O)cc3)o2)cc1` ?
a: 686

q: Try this molecule too: `CCNc1ccc(C(=O)OCC)cc1NC(=O)c1cc(S(=O)(=O)N2CCOCC2)ccc1C`
a: 772

q: Please give the result for CCOc1ccc(NC(=O)CSC2=C(C#N)C(c3ccc4c(c3)OCO4)CC(=O)N2)cc1 (stereo not drawn) too.
a: 639

q: Can you handle CC(NC(=O)c1ccc(=O)oc1)c1ccccc1 (stereo not drawn) next?
a: 544

q: Again, but for Cn1cc(C2NC(=O)c3c(sc4c3CCCC4)N2)c2ccccc21 (stereo not drawn)
a: 561

q: Next entry: `CCOc1ccc(-c2nc(C#N)c(NCC(C)C)o2)cc1`
a: 402

q: Note, next up: `Cc1nc(=O)c(-c2ccccc2)c(C)n1-c1ccc(S(N)(=O)=O)cc1`
a: 568

q: Let us now turn to O=C(O)CC(NC(=O)c1ccccc1NC(=O)c1ccccc1)C(=O)O (stereo not drawn)
a: 284

q: Repeat with CCOCCCNC(=O)CC1Oc2ccc(C)cc2NC1=O (stereo not drawn)
a: 595

q: Next molecule up: `O=C(c1ccc(CSCc2ccccc2F)o1)N1CCN(c2ccc(N3CCOCC3)nn2)CC1`
a: 504

q: `COCCCN(Cc1ccccn1)S(=O)(=O)Cc1ccccc1` , same question.
a: 510

q: Repeat for the following molecule: `Cc1cc(C)n(-c2c(F)c(F)c(CN3CCCCC3)c(F)c2F)n1`
a: 557

q: Same again, this time with `CSc1nc(C)c(C(=O)Nc2ccccc2)c(C)c1C#N`
a: 761

q: # iterate: `CCCc1nnc(NC(=O)CCC(=O)N2CCN(CCOc3ccc(C)cc3)CC2)s1`
a: 480

q: Entry to check: CC1=C(C(=O)Nc2ccccc2)C(c2ccccn2)n2nc(CCCO)nc2N1 (stereo not drawn)
a: 662

q: Also check `O=C(Nc1ccc(N2CCOCC2)c(Cl)c1)c1ccc(Br)o1`
a: 708

q: Can you handle CCOC(=O)C1CCN(c2nc3ccccc3nc2C(C#N)C(=O)OC(C)COC)CC1 (stereo not drawn) next?
a: 633

q: Please do the same for `CCc1ccccc1NC(=O)CSc1ncn[nH]1` as well.
a: 306

q: `CCCc1nc(N2CCCC2)c(C#N)c2c1CCCC2` ?
a: 605

q: Next record, please: COC(=O)CC1SCCNC1=O (stereo not drawn)
a: 308

q: Field entry: `O=C(COc1ccc(Cl)cc1)NCc1nnc(SCC(=O)Nc2ccc3c(c2)OCCO3)o1`
a: 375

q: And then `Cc1ccc(C(=O)NCCCNCCCNC(=O)c2ccc(C)nc2)cn1` , what is it?
a: 393

q: Now try O=C(C1CCCN(S(=O)(=O)c2cnc[nH]2)C1)N1CCN(c2ccc(Cl)cc2)CC1 (stereo not drawn) .
a: 566
